EXPERIMENTAL_TARGET: Cytochrome P450 2C19 (Homo sapiens) (UniProt P33261)
Sequence (P33261 whole entry, looked up): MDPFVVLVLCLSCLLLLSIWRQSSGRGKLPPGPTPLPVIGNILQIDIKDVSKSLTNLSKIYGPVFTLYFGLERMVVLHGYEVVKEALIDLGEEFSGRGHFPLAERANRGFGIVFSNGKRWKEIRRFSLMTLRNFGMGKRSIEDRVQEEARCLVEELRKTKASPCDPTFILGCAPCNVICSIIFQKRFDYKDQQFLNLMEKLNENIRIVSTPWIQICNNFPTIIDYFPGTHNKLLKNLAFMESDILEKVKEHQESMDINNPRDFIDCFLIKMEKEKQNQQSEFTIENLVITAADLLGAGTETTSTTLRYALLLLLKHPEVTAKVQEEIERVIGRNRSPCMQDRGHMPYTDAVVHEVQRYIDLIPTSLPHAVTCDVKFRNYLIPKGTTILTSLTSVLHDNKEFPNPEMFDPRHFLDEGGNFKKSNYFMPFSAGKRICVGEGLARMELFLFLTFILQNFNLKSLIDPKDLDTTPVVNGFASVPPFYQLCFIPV
ASSAY: blockers of cytochrome P450 2C19 activity – biochemical, luminescence, ADME assay, primary screen (AID 778);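 further: plate controls were negative control wells for no effect and 2.5 mM tranylcypromine positive control for full effect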
REPORTED_CONDITIONS: CYP2C19 Supersomes, luciferin-H EGE luminescence, 30 min; at 5 µM; hits give high values
Screen size: about 96,000 compounds; about 20,000 (21%) were called active. Not all results are given here.
Collected inhibition values appear next to each entry.
I only need the number, in %, no unit after it.

Recorded results for 3 molecules are shown here.
Can you look up the measured inhibition of COc1ccc(C(=O)Nc2nncs2)c(OC)c1 for me?
-14.8

Lookup Cn1cc(S(=O)(=O)N2CCC(Cc3ccccc3)CC2)c(=O)n(C)c1=O
69.7

Lookup Cn1c(=O)c2c(SCC(=O)N3CCOCC3)nc(C3CC3)nc2n(C)c1=O
8.8

Further cases:
Can you look up the measured inhibition of CCn1c2ccccc2c2cc(NC(=S)N3CCOCC3)ccc21 for me?
11.1

Lookup COC(=O)c1c(-c2cccs2)csc1NC(=O)CSc1ncnc2sc(C)c(C)c12
16.1

Lookup CN1CCN(S(=O)(=O)c2ccc(NC(=O)C3CCCO3)cc2)CC1 (configuration not stated)
3.5

Lookup COc1ccc(NC(=O)CN2CCN(S(=O)(=O)c3ccc(F)cc3)CC2)cc1Cl
0.5

Lookup Cc1cc(C)n2nc(C(=O)NC(C)(C)C)nc2n1
-2.8

Lookup CCC(C(=O)Nc1ncccn1)(C(F)(F)F)C(F)(F)F
-8.1

Lookup CCOC(=O)c1c(NC(=O)CSc2nnc(CN3CCOCC3)n2C)sc2c1CCCC2
48.7

Lookup Cc1ccc(C2=NN(C)c3nc4ccccc4n3C2)cc1
12.8

Lookup COc1cc(Cl)c(S(=O)(=O)N2CCN(Cc3ccc4c(c3)OCO4)CC2)cc1Cl
36.2

Lookup COc1ccc(NC(=O)Cn2c(=O)n(Cc3ccco3)c(=O)c3ccccc32)cc1
15.9

Lookup COc1ccc(C(c2nnnn2Cc2cccs2)N2CCN(c3ccccc3)CC2)cc1OC (configuration not stated)
69.8

Lookup O=C(COc1ncnc2c(Cl)cc(Cl)cc12)N1CCN(S(=O)(=O)c2ccccc2)CC1
-6.9

Lookup CC(C)NS(=O)(=O)c1ccc(OCC(=O)Nc2ccc3c(c2)OCCO3)cc1
28.9

Lookup CN(CCCNC(=O)CN1C(=O)CC(C)(C)S(=O)(=O)c2ccccc21)C1CCCCC1
9.9

---

EXPERIMENTAL_TARGET: Cytochrome P450 2C19 (Homo sapiens) (UniProt P33261)
ASSAY: blockers of cytochrome P450 2C19 activity – biochemical, luminescence, ADME assay, primary screen (AID 778);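 further: plate controls were negative control wells for no effect and 2.5 mM tranylcypromine positive control for full effect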
REPORTED_CONDITIONS: CYP2C19 Supersomes, luciferin-H EGE luminescence, 30 min; at 5 µM; hits give high values
Out of some 96,000 compounds screened, about 20,000 (21%) were called active. The list is a sample of the results.
Entry flag: Fulfilled if inhibition reaches 60%; Not fulfilled if it does not.

Completed entries (count: 8):
Reported inhibition at or above 60%? Cc1cc(NC(=O)COC(=O)c2ccc(F)c(S(=O)(=O)N3CCOCC3)c2)no1
Not fulfilled

Lookup O=C(CSc1ncccn1)NCCc1ccccc1
Fulfilled

Lookup COc1ccc(Cl)cc1C(=O)NCC#N
Not fulfilled

Lookup Cc1ccsc1C(=O)OCC(=O)c1cc(C)n(CC2CCCO2)c1C (stereo not drawn)
Not fulfilled

Lookup COc1cc(SC)ccc1C(=O)NCCOc1ccccc1Cl
Fulfilled

Lookup CCCCCCCCOC1OC(CO)C(O)C(O)C1NC(C)=O (stereo not drawn)
Not fulfilled

Lookup Cc1nc2ccc(C(=O)O)cc2[nH]1
Not fulfilled

Lookup COC(=O)c1[nH]c2ccc(Br)cc2c1NC(=O)Oc1ccccc1
Not fulfilled

Further cases:
Reported inhibition at or above 60%? C#CCN1CC(C)/C(=N/O)CC1C (stereo not drawn)
Not fulfilled

Lookup COC(=O)CCSc1nccn1Cc1ccccc1
Fulfilled

Lookup CCn1c(CSc2ncccn2)nnc1SCC(=O)N1c2ccccc2CC1C (stereo not drawn)
Not fulfilled
